Tested on: OVCA420 (Ovarian Carcinoma)
Experiment: Bliss excess, mean over the matrix (fraction); higher = more synergy
measurementType: Bliss excess
Respond using a number only.

compound	measurementType	value
NC1(C(=O)N[C@@H](CCO)c2ccc(Cl)cc2)CCN(c2ncnc3[nH]ccc23)CC1 [Capivasertib] + C[C@@H]1COCCN1C2=NC(=NC(=C2)C3(CC3)[S@](=N)(=O)C)C4=C5C=CNC5=NC=C4 [AZD6738] (first compound max 10 µM, 7x7, partner max 10 µM)	Bliss excess	-0.0468
CC1(C)CCC(CN2CCN(c3ccc(C(=O)NS(=O)(=O)c4ccc(NCC5CCOCC5)c([N+](=O)[O-])c4)c(Oc4cnc5[nH]ccc5c4)c3)CC2)=C(c2ccc(Cl)cc2)C1 [Venetoclax] + C1CN(CCC1(C(=O)N[C@@H](CCO)C2=CC=C(C=C2)Cl)N)C3=NC=NC4=C3C=CN4 [Capivasertib] (first compound max 1 µM, 7x7, partner max 3 µM)	Bliss excess	-0.0357

Attention now shifts to the item below.
// lookup Bliss excess for CCN(CCO)CCCOc1ccc2c(Nc3cc(CC(=O)Nc4cccc(F)c4)[nH]n3)ncnc2c1 [AZD2811] + C[C@@H]1COCCN1C2=NC(=NC(=C2)C3(CC3)[S@](=N)(=O)C)C4=C5C=CNC5=NC=C4 [AZD6738] (first compound max 1 µM, 7x7, partner max 10 µM)
-0.0777

---

List of combination Emax values.
Tested on: UM-UC-3 (Bladder Carcinoma)
Experiment: combination Emax (second highest fraction inhibited in the dose matrix, 72 h); higher = more inhibition; extreme values may be limits of the assay
Give your answer as a number; write no unit.

Here is how some compounds turned out for combination Emax.
compound	measurementType	value
CN(CCO)CC[C@H](CSc1ccccc1)Nc1ccc(S(=O)(=O)NC(=O)c2ccc(N3CCC([C@@H](O)c4ccccc4-c4ccc(Cl)cc4)CC3)cc2)cc1S(=O)(=O)C(F)(F)F [AZD4320] + Cn1cnc2c(F)c(Nc3ccc(Br)cc3Cl)c(C(=O)NOCCO)cc21 [Selumetinib] (first compound max 1 µM, 7x7, partner max 3 µM)	combination Emax	0.332
CN(CCO)CC[C@H](CSc1ccccc1)Nc1ccc(S(=O)(=O)NC(=O)c2ccc(N3CCC([C@@H](O)c4ccccc4-c4ccc(Cl)cc4)CC3)cc2)cc1S(=O)(=O)C(F)(F)F [AZD4320] + C=CCn1c(=O)c2cnc(Nc3ccc(N4CCN(C)CC4)cc3)nc2n1-c1cccc(C(C)(C)O)n1 [AZD1775] (first compound max 1 µM, partner max 1 µM)	combination Emax	0.276
NC1(C(=O)N[C@@H](CCO)c2ccc(Cl)cc2)CCN(c2ncnc3[nH]ccc23)CC1 [Capivasertib] + CC(=O)c1c(C)c2cnc(Nc3ccc(N4CCNCC4)cn3)nc2n(C2CCCC2)c1=O [Palbociclib] (first compound max 10 µM, 7x7, partner max 10 µM)	combination Emax	0.491
Cc1c2c(nn1C)CSCc1cc(n(C)n1)CSc1cc(c3ccccc3c1)OCCCc1c(C(=O)O)n(C)c3c-2c(Cl)ccc13 [AZD5991] + CN(C)CCCOc1ccc(-c2ccc3ncc4c(c3c2)n(C2CCOCC2)c(=O)n4C)cn1 [AZD0156] (first compound max 1 µM, 7x7, partner max 1 µM)	combination Emax	0.211

Give its combination Emax value. Item: Cc1cc2ncnn2cc1Nc1ncc2c(n1)n(C1CCOCC1)c(=O)n2C [AZD7648] + C=CCn1c(=O)c2cnc(Nc3ccc(N4CCN(C)CC4)cc3)nc2n1-c1cccc(C(C)(C)O)n1 [AZD1775] (first compound max 10 µM, partner max 1 µM)
0.287

Recorded combination Emax for N#Cc1cnc(Nc2cc(NC[C@H]3CNCCO3)c(C(F)(F)F)cn2)cn1 [SRA737] + C=CCn1c(=O)c2cnc(Nc3ccc(N4CCN(C)CC4)cc3)nc2n1-c1cccc(C(C)(C)O)n1 [AZD1775] (first compound max 10 µM, partner max 1 µM) , please?
0.471

---

Test system: NCI-H2085 (Non-Small Cell Lung Carcinoma)
Assay: Bliss excess, mean over the matrix (fraction); higher = more synergy
measurementType: Bliss excess
Output spec: single numeric token, no unit.

Worked cases, Bliss excess given:
molecule	Bliss excess
CC(=O)c1c(C)c2cnc(Nc3ccc(N4CCNCC4)cn3)nc2n(C2CCCC2)c1=O [Palbociclib] + CC1(C)CCC(CN2CCN(c3ccc(C(=O)NS(=O)(=O)c4ccc(NCC5CCOCC5)c([N+](=O)[O-])c4)c(Oc4cnc5[nH]ccc5c4)c3)CC2)=C(c2ccc(Cl)cc2)C1 [Venetoclax] (first compound max 10 µM, 7x7, partner max 1 µM)	-0.0306
Cc1c2c(nn1C)CSCc1cc(n(C)n1)CSc1cc(c3ccccc3c1)OCCCc1c(C(=O)O)n(C)c3c-2c(Cl)ccc13 [AZD5991] + C[C@@H]1COCCN1C2=NC(=NC(=C2)C3(CC3)[S@](=N)(=O)C)C4=C5C=CNC5=NC=C4 [AZD6738] (first compound max 1 µM, 7x7, partner max 10 µM)	0.0312
COc1cccc(OCCCN)c1-c1cc(Nc2cnc(C#N)cn2)n[nH]1 [Prexasertib] + C=CCn1c(=O)c2cnc(Nc3ccc(N4CCN(C)CC4)cc3)nc2n1-c1cccc(C(C)(C)O)n1 [AZD1775] (first compound max 1 µM, partner max 1 µM)	0.124
Cc1c2c(nn1C)CSCc1cc(n(C)n1)CSc1cc(c3ccccc3c1)OCCCc1c(C(=O)O)n(C)c3c-2c(Cl)ccc13 [AZD5991] + Nc1ccn([C@@H]2O[C@H](CO)[C@@H](O)C2(F)F)c(=O)n1 [Gemcitabine] (first compound max 1 µM, 7x7, partner max 0.3 µM)	-0.021
Cc1c2c(nn1C)CSCc1cc(n(C)n1)CSc1cc(c3ccccc3c1)OCCCc1c(C(=O)O)n(C)c3c-2c(Cl)ccc13 [AZD5991] + Cn1cnc2c(F)c(Nc3ccc(Br)cc3Cl)c(C(=O)NOCCO)cc21 [Selumetinib] (first compound max 1 µM, 7x7, partner max 3 µM)	-0.0344

Which measured Bliss excess value corresponds to COc1nnc2ccc(N3CCC(c4ccc(OCCN5CCN(C)C(=O)[C@H]5C)cc4)CC3)nn12 [AZD5153] + Cn1cnc2c(F)c(Nc3ccc(Br)cc3Cl)c(C(=O)NOCCO)cc21 [Selumetinib] (first compound max 1 µM, 7x7, partner max 10 µM) ?
0.027

Please give the measured Bliss excess for this molecule: N#Cc1cnc(Nc2cc(NC[C@H]3CNCCO3)c(C(F)(F)F)cn2)cn1 [SRA737] + CCc1c2c(nc3ccc(O)cc13)-c1cc3c(c(=O)n1C2)COC(=O)[C@]3(O)CC [SN-38] (first compound max 10 µM, 7x7, partner max 0.3 µM)
-0.0053

---

System: MDA-MB-361 (Breast Carcinoma)
Assay: combination Emax (second highest fraction inhibited in the dose matrix, 72 h); higher = more inhibition; extreme values may be limits of the assay
The compounds listed here are annotated with their combination Emax.
I'd appreciate a reply containing only the number, no unit.

compound	combination Emax
CN(CCO)CC[C@H](CSc1ccccc1)Nc1ccc(S(=O)(=O)NC(=O)c2ccc(N3CCC([C@@H](O)c4ccccc4-c4ccc(Cl)cc4)CC3)cc2)cc1S(=O)(=O)C(F)(F)F [AZD4320] + CCN(CCO)CCCOc1ccc2c(Nc3cc(CC(=O)Nc4cccc(F)c4)[nH]n3)ncnc2c1 [AZD2811] (first compound max 1 µM, 7x7, partner max 1 µM)	0.679
Cc1c2c(nn1C)CSCc1cc(n(C)n1)CSc1cc(c3ccccc3c1)OCCCc1c(C(=O)O)n(C)c3c-2c(Cl)ccc13 [AZD5991] + C[C@@H](Nc1cc(F)cc(F)c1)c1cc(C(=O)N(C)C)cc2c(=O)cc(N3CCOCC3)oc12 [AZD8186] (first compound max 1 µM, 7x7, partner max 3 µM)	0.806

Bench note: what combination Emax did CC1(C)CCC(CN2CCN(c3ccc(C(=O)NS(=O)(=O)c4ccc(NCC5CCOCC5)c([N+](=O)[O-])c4)c(Oc4cnc5[nH]ccc5c4)c3)CC2)=C(c2ccc(Cl)cc2)C1 [Venetoclax] + CCN(CCO)CCCOc1ccc2c(Nc3cc(CC(=O)Nc4cccc(F)c4)[nH]n3)ncnc2c1 [AZD2811] (first compound max 1 µM, 7x7, partner max 1 µM) show?
0.334

Data request, read-out combination Emax, for Cc1cc2ncnn2cc1Nc1ncc2c(n1)n(C1CCOCC1)c(=O)n2C [AZD7648] + C=CCn1c(=O)c2cnc(Nc3ccc(N4CCN(C)CC4)cc3)nc2n1-c1cccc(C(C)(C)O)n1 [AZD1775] (first compound max 10 µM, partner max 1 µM)
0.824

---

Test system: LB831-BLC (Bladder Carcinoma)
Assay: Bliss excess, mean over the matrix (fraction); higher = more synergy
measurementType: Bliss excess
# respond with the number and nothing more

# annotated cases, reported Bliss excess shown
compound	measurementType	value
CC1(C)CCC(CN2CCN(c3ccc(C(=O)NS(=O)(=O)c4ccc(NCC5CCOCC5)c([N+](=O)[O-])c4)c(Oc4cnc5[nH]ccc5c4)c3)CC2)=C(c2ccc(Cl)cc2)C1 [Venetoclax] + C[C@@H](Nc1cc(F)cc(F)c1)c1cc(C(=O)N(C)C)cc2c(=O)cc(N3CCOCC3)oc12 [AZD8186] (first compound max 1 µM, 7x7, partner max 3 µM)	Bliss excess	-0.0465
COc1cccc(OCCCN)c1-c1cc(Nc2cnc(C#N)cn2)n[nH]1 [Prexasertib] + O=C(c1cc(Cc2n[nH]c(=O)c3ccccc23)ccc1F)N1CCN(C(=O)C2CC2)CC1 [Olaparib] (first compound max 1 µM, 7x7, partner max 10 µM)	Bliss excess	-0.0175
CN(CCO)CC[C@H](CSc1ccccc1)Nc1ccc(S(=O)(=O)NC(=O)c2ccc(N3CCC([C@@H](O)c4ccccc4-c4ccc(Cl)cc4)CC3)cc2)cc1S(=O)(=O)C(F)(F)F [AZD4320] + CCN(CCO)CCCOc1ccc2c(Nc3cc(CC(=O)Nc4cccc(F)c4)[nH]n3)ncnc2c1 [AZD2811] (first compound max 1 µM, 7x7, partner max 1 µM)	Bliss excess	0.0234
CN(C)CCCOc1ccc(-c2ccc3ncc4c(c3c2)n(C2CCOCC2)c(=O)n4C)cn1 [AZD0156] + C=CCn1c(=O)c2cnc(Nc3ccc(N4CCN(C)CC4)cc3)nc2n1-c1cccc(C(C)(C)O)n1 [AZD1775] (first compound max 1 µM, partner max 1 µM)	Bliss excess	-0.104

Return Bliss excess measured with LB831-BLC (Bladder Carcinoma) given this compound: C[C@@H]1COCCN1c1cc(C2([S@](C)(=N)=O)CC2)nc(-c2ccnc3[nH]ccc23)n1 [AZD6738] + Nc1ccn([C@@H]2O[C@H](CO)[C@@H](O)C2(F)F)c(=O)n1 [Gemcitabine] (first compound max 10 µM, 7x7, partner max 0.3 µM)
0.113
